Experiment: Half life in male Sprague-Dawley rat at 2 mg/kg, iv measured after 12 hrs by LC-MS/MS analysis
Type: ADME, organism-based
Conditions: in vivo
parameter measured: half-life (min)
Provide only the numeric value, understood in min.

Noted for O=C(/C=C/C(=O)N1CCN(CC2CCN(c3cccc4c3C(=O)N(C3CCC(=O)NC3=O)C4=O)C2)CC1)Nc1ccc(NC(=O)c2ccc([N+](=O)[O-])o2)cc1 (stereo unspecified) : its half-life reads 51.6

###

Assay: Acute toxicity in C57BL/6J mouse
Settings: in vivo, dose 30 mg/kg
parameter measured: LD50

Noted for O=C(/C=C/C(=O)N1CCN(CC2CCN(c3cccc4c3C(=O)N(C3CCC(=O)NC3=O)C4=O)C2)CC1)Nc1ccc(NC(=O)c2ccc([N+](=O)[O-])o2)cc1 (stereo unspecified) : its LD50 reads > 179 mg/kg

###

Experiment: MRT (0 to infinity) in male Sprague-Dawley rat at 2 mg/kg, iv measured after 12 hrs by LC-MS/MS analysis
Assay type: ADME, organism-based
Conditions: in vivo
parameter measured: MRT inf (min)
Provide only the numeric value, understood in min.

Noted for O=C(/C=C/C(=O)N1CCN(CC2CCN(c3cccc4c3C(=O)N(C3CCC(=O)NC3=O)C4=O)C2)CC1)Nc1ccc(NC(=O)c2ccc([N+](=O)[O-])o2)cc1 (stereo unspecified) : its MRT inf reads 12.6

###

Assay: Water solubility of the compound at 2 mg by HPLC analysis
Type: physicochemical
Entries annotated with measured solubility
Provide only the numeric value, understood in µg/mL.

# example entries with known answers
compound	result unit	solubility
O=C(/C=C/C(=O)N1CCC(CN2CCN(c3cccc4c3C(=O)N(C3CCC(=O)NC3=O)C4=O)CC2)CC1)Nc1ccc(NC(=O)c2ccc([N+](=O)[O-])o2)cc1 (stereo unspecified)	µg/mL	1.562
O=C(/C=C/C(=O)Nc1ccc(NC(=O)c2ccc([N+](=O)[O-])o2)cc1)NCCCCCCNc1cccc2c1C(=O)N(C1CCC(=O)NC1=O)C2=O (stereo unspecified)	µg/mL	0.854
O=C(/C=C/C(=O)N1CCN(CC2CCCN2c2cccc3c2C(=O)N(C2CCC(=O)NC2=O)C3=O)CC1)Nc1ccc(NC(=O)c2ccc([N+](=O)[O-])o2)cc1 (stereo unspecified)	µg/mL	2.872
O=C(/C=C/C(=O)N1CCN(CC2CCN(c3cccc4c3C(=O)N(C3CCC(=O)NC3=O)C4=O)C2)CC1)Nc1ccc(NC(=O)c2ccc([N+](=O)[O-])o2)cc1 (stereo unspecified)	µg/mL	3.317
O=C(/C=C/C(=O)N1CCN(C2CCN(c3cccc4c3C(=O)N(C3CCC(=O)NC3=O)C4=O)C2)CC1)Nc1ccc(NC(=O)c2ccc([N+](=O)[O-])o2)cc1 (stereo unspecified)	µg/mL	6.098

Field: next compound
Noted for O=C(/C=C/C(=O)N1CC(CN2CCN(c3cccc4c3C(=O)N(C3CCC(=O)NC3=O)C4=O)CC2)C1)Nc1ccc(NC(=O)c2ccc([N+](=O)[O-])o2)cc1 (stereo unspecified) : its solubility reads 6.485

###

Experiment: AUC (0 to t) in male Sprague-Dawley rat at 2 mg/kg, iv measured after 12 hrs by LC-MS/MS analysis
Format: ADME, organism-based
Conditions: in vivo
parameter measured: AUC(0-t) at 12 h
Phrase the answer as number then unit, nothing more needed.

Noted for O=C(/C=C/C(=O)N1CCN(CC2CCN(c3cccc4c3C(=O)N(C3CCC(=O)NC3=O)C4=O)C2)CC1)Nc1ccc(NC(=O)c2ccc([N+](=O)[O-])o2)cc1 (stereo unspecified) : its AUC(0-t) at 12 h reads 729 ng·h/mL
